- Experimental details: Inhibition of NS5A in HuH7 cell infected HCV genotype 1b Con1 assessed as decrease in viral replication after 3 days by luciferase reporter gene assay
Provide the recorded EC50 for the entries that follow.
API: value field is a number in nM; no unit string.

If you can, please state the reported EC50 value of COC(=O)N[C@H](C(=O)N1CCC[C@H]1c1nc2ccc([C@H]3CC[C@H](c4ccc5nc([C@@H]6CCCN6C(=O)[C@@H](NC(=O)OC)C(C)C)[nH]c5c4)N3c3ccc(Cl)cc3)cc2[nH]1)C(C)C .
0.007

What does the record list as EC50 for COC(=O)N[C@H](C(=O)N1CCC[C@H]1c1nc2ccc([C@H]3CC[C@H](c4ccc5nc([C@@H]6CCCN6C(=O)[C@@H](NC(=O)OC)C(C)C)[nH]c5c4)N3c3ccc(C4CCCCC4)cc3)cc2[nH]1)C(C)C ?
0.009

Which EC50 value is on record for COC(=O)N[C@H](C(=O)N1CCC[C@H]1c1nc2ccc([C@H]3CC[C@H](c4ccc5nc([C@@H]6CCCN6C(=O)[C@@H](NC(=O)OC)C(C)C)[nH]c5c4)N3c3ccc(C(C)(C)C)cc3)cc2[nH]1)C(C)C ?
0.013

Dear colleague, I am looking for the recorded EC50 of the following molecule: COC(=O)N[C@H](C(=O)N1CCC[C@H]1c1nc2ccc([C@H]3CC[C@H](c4ccc5nc([C@@H]6CCCN6C(=O)[C@@H](NC(=O)OC)C(C)C)[nH]c5c4)N3c3ccc(C4CC4)cc3)cc2[nH]1)C(C)C
0.023

Field request: EC50 | item: COC(=O)N[C@H](C(=O)N1CCC[C@H]1c1nc2ccc([C@H]3CC[C@H](c4ccc5nc([C@@H]6CCCN6C(=O)[C@@H](NC(=O)OC)C(C)C)[nH]c5c4)N3c3ccc(OC(F)(F)F)cc3)cc2[nH]1)C(C)C
0.012

* * *

- Experimental details: Inhibition of HCV genotype 1b Con1 NS5A expressed in HuH7 cell infected HCV genotype 3a assessed as decrease in viral replication after 3 days by luciferase reporter gene assay
Endpoint name: pEC50
Please express pEC50 as -log10 of the molar concentration.

May I ask what pEC50 has been recorded for COC(=O)N[C@H](C(=O)N1CCC[C@H]1c1nc2ccc([C@H]3CC[C@H](c4ccc5nc([C@@H]6CCCN6C(=O)[C@@H](NC(=O)OC)C(C)C)[nH]c5c4)N3c3ccc(N4CCCCC4)c(F)c3)cc2[nH]1)C(C)C ?
10.36

Item COC(=O)N[C@H](C(=O)N1CCC[C@H]1c1nc2ccc([C@H]3CC[C@H](c4ccc5nc([C@@H]6CCCN6C(=O)[C@@H](NC(=O)OC)C(C)C)[nH]c5c4)N3c3ccc(OC(F)(F)F)cc3)cc2[nH]1)C(C)C has what recorded pEC50?
10.74

May I ask what pEC50 has been recorded for COC(=O)N[C@H](C(=O)N1CCC[C@H]1c1nc2ccc([C@H]3CC[C@H](c4ccc5nc([C@@H]6CCCN6C(=O)[C@@H](NC(=O)OC)C(C)C)[nH]c5c4)N3c3ccc(C4CC4)cc3)cc2[nH]1)C(C)C ?
10.59

Look up pEC50 for this molecule: COC(=O)N[C@H](C(=O)N1CCC[C@H]1c1nc2cc([C@H]3CC[C@H](c4cc5nc([C@@H]6CCCN6C(=O)[C@@H](NC(=O)OC)[C@@H](C)OC)[nH]c5cc4F)N3c3cc(F)c(N4CCC(c5ccc(F)cc5)CC4)c(F)c3)c(F)cc2[nH]1)[C@@H](C)OC
11.68
